Data credit: ChEMBL document CHEMBL1914431

Test system: P-gp
Assay: Efflux ratio of the compound in MDCK cells expressing p-gp
Assay type: ADME, cell-based, Canis lupus familiaris
Conditions: dog, MDCK-MDR1
EXPERIMENTAL_ENDPOINT: efflux ratio
Form rule: numeric answer, no unit written next to it.

input: Name the reported efflux ratio value associated with the compound `Cc1cc(C(=O)NN2CCOCC2)nn1Cc1cc(Cl)cc2cc(C(C)C)oc12`
output: 0.9

----------
Each entry below carries its reported concentration at 1 h.
Assay: Drug level in blood of rat complete Freund's adjuvant-induced inflammatory pain model at 10 mg/kg, po after 1 hr
Format: ADME, organism-based
Set-up: dose 10 mg/kg, route oral
Settings: read-out: Drug uptake
Enter your answer as a number in nM; do not include the unit.

>  <CHEMICAL_STRUCTURE>
Cc1cc(C(=O)NN2CCOCC2)nn1Cc1cc(Cl)cc2cc(-c3ccccc3)oc12

>  <concentration at 1 h (nM)>
2340

$$$$

input: Name the reported concentration at 1 h value associated with the compound `Cc1cc(C(=O)NC(C)(C)C)nn1Cc1cc(Cl)cc2cc(-c3ccccc3)oc12`
output: 381

input: Can you check `Cc1cc(C(=O)NN2CCOCC2)nn1Cc1cc(Cl)cc2cc(C(C)C)oc12` next?
output: 5610

----------
Assay: Drug level in brain of rat complete Freund's adjuvant-induced inflammatory pain model at 30 mg/kg, po after 1 hr
Assay type: ADME, organism-based
Parameters: dose 30 mg/kg, route oral
Conditions: read-out: Drug uptake
EXPERIMENTAL_ENDPOINT: concentration at 1 h (µM)
Enter your answer as a number in µM; do not include the unit.

input: Name the reported concentration at 1 h value associated with the compound `Cc1cc(C(=O)NN2CCOCC2)nn1Cc1cc(Cl)cc2cc(C(C)C)oc12`
output: 11.3

----------
Each entry below carries its reported solubility at 1 h.
Test: Solubility of the compound in fasted state simulated intestinal fluid after 1 hr
Type: physicochemical
Enter your answer as a number in µg/mL; do not include the unit.

>  <CHEMICAL_STRUCTURE>
Cc1cc(C(=O)NN2CCOCC2)nn1Cc1cc(Cl)cc2cc(C(C)C)oc12

>  <solubility at 1 h, µg/mL>
5

$$$$

input: Name the reported solubility at 1 h value associated with the compound `Cc1cc(C(=O)NN2CCOCC2)nn1Cc1cc(Cl)cc2cc(-c3ccccc3)oc12`
output: 382

----------
Target: Prostaglandin E2 receptor EP1 subtype (Homo sapiens)
Sequence (P34995 whole entry): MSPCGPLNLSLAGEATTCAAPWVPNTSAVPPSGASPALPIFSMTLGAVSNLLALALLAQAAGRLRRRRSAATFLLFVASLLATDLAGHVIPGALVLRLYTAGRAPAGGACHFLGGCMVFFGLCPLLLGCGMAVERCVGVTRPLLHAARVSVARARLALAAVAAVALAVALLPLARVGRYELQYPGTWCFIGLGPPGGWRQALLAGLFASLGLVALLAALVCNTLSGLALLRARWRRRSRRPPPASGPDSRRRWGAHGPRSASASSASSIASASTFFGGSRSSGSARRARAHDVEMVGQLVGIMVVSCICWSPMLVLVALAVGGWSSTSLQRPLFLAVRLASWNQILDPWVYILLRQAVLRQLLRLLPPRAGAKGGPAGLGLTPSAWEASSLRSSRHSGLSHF
Experiment: Displacement of [3H]GW875240X from human prostanoid EP1 receptor expressed in CHO-K1 cells after 45 mins by topcount liquid scintillation counting
Assay type: cell-based
EXPERIMENTAL_ENDPOINT: IC50 (nM)
Enter your answer as a number in nM; do not include the unit.

Look over these answered cases.
>  <CHEMICAL_STRUCTURE>
Cc1cc(C(=O)N[C@H]2CC[C@H](O)CC2)nn1Cc1cc(Cl)cc2cc(-c3ccccc3)oc12

>  <UNITS>
nM

>  <IC50>
7.94

$$$$
>  <CHEMICAL_STRUCTURE>
Cc1cc(C(=O)O)nn1Cc1cc(Cl)cc2cc(C3CC3)oc12

>  <UNITS>
nM

>  <IC50>
50.1

$$$$
>  <CHEMICAL_STRUCTURE>
Cc1cc(NC(=O)C2CCNCC2)nn1Cc1cc(Cl)cc2cc(-c3ccccc3)oc12

>  <UNITS>
nM

>  <IC50>
100

$$$$
>  <CHEMICAL_STRUCTURE>
Cc1cc(NC(=O)C2(F)CCNCC2)nn1Cc1cc(Cl)cc2cc(-c3ccccc3)oc12

>  <UNITS>
nM

>  <IC50>
39.8

$$$$

input: Form: Entry = `Cc1cc(C(=O)NCC2CCNCC2)nn1Cc1cc(Cl)cc2cc(-c3ccccc3)oc12` | System = Prostaglandin E2 receptor EP1 subtype (Homo sapiens) | IC50 = ____
output: 20

input: Can you check `Cc1cc(C(=O)NC(C)(C)C)nn1Cc1cc(Cl)cc2cc(-c3ccccc3)oc12` next?
output: 10

input: Can you check `Cc1cc(C(=O)O)nn1Cc1cc(Cl)cc2oc(C(C)C)cc12` next?
output: 251

input: Can you check `CO[C@H]1CC[C@H](NC(=O)c2cc(C)n(Cc3cc(Cl)cc4cc(C(C)C)oc34)n2)CC1` next?
output: 316

input: Can you check `Cc1cc(NC(=O)CC2CCNCC2)nn1Cc1cc(Cl)cc2cc(-c3ccccc3)oc12` next?
output: 63.1
